- target system: human recombinant mGluR5 (Homo sapiens)
- Construct: hygromycin and geneticin selection
- Sequence (P41594 21-1212): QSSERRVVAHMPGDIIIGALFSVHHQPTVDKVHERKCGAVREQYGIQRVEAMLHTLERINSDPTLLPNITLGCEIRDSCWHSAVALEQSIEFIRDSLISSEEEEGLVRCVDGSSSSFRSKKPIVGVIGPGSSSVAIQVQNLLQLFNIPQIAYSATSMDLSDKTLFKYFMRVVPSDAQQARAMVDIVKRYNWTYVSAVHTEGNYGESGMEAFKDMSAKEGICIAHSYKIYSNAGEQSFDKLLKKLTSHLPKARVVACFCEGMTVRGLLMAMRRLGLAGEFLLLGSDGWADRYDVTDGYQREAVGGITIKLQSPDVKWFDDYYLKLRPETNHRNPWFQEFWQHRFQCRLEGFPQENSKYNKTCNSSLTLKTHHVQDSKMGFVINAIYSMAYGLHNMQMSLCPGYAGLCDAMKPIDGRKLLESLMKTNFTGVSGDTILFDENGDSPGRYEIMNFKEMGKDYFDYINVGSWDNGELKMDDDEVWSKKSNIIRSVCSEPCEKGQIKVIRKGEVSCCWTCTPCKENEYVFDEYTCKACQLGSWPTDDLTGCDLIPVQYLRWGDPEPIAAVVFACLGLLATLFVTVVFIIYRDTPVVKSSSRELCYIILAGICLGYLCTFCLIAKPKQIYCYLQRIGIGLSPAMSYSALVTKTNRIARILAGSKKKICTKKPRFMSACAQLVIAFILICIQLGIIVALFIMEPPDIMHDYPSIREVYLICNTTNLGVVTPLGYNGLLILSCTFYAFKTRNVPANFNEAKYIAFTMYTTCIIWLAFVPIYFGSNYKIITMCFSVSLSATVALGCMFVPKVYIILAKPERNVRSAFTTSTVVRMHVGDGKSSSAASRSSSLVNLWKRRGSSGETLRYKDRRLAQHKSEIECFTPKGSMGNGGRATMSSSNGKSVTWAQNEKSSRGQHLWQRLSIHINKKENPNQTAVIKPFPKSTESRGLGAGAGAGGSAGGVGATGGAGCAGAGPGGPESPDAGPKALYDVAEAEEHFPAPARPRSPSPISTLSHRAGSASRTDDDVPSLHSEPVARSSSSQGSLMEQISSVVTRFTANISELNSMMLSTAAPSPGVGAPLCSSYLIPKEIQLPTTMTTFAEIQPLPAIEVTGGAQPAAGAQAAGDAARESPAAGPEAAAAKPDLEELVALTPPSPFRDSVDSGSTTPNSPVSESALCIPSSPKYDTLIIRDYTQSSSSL
- procedure summary: positive modulation of mGluR5, calcium based FLIPR assay
- conditions used: HEK 293 cell line expressing human recombinant mGluR5; Ca2+ peak height after glutamate at approximately 5% basal stimulation; nonlinear regression
- Procedure: The positive modulation of mGluR5 is measured in a HEK 293 cell line expressing human recombinant mGluR5 and is detected with calcium based FLIPR assay. […] 20 μl of each compound solution are then transferred to the assay plate and the Ca2+ kinetic is measured to determine any intrinsic compound activity. […] The peak height of the Ca release related fluorescence signal (9-66) is used for the EC50. The EC50 of the modulation is calculated over a nonlinear regression with GraphPad Prism (Table 1).
readout label: pEC50
Keep it numeric: pEC50 is minus log10 of the concentration in mol/L.

# get_value(readout='pEC50', item= COCc1cccc(C(=O)N2CCN(C(=O)c3ncn(-c4cccc(Cl)c4)n3)C(C)(C)C2)n1 [Example 38] )
6.39

# get_value(readout='pEC50', item= O=C(c1cc(Br)c(Br)o1)N1CCN(C(=O)c2ncn(-c3cccc(F)c3)n2)C2(CCC2)C1 [Example 306] )
6.35

# get_value(readout='pEC50', item= COc1nc(C(=O)N2CCN(C(=O)c3ncn(-c4ccccc4)n3)C(C)(C)C2)cc2cc(F)c(F)cc12 [Example 148] )
6.95

# get_value(readout='pEC50', item= CC1(C)CN(C(=O)c2cccc(C(F)(F)F)c2)CCN1C(=O)c1nnn(-c2ccccc2)n1 [Example 166] )
7.82

# get_value(readout='pEC50', item= CC(C#N)c1cccc(C(=O)N2CCN(C(=O)c3ncn(-c4cccc(Cl)c4)n3)C(C)(C)C2)c1 (stereo not shown) [Example 75] )
6.38

# get_value(readout='pEC50', item= COc1cccc(C(=O)N2CCN(C(=O)c3ncn(-c4cccc(Br)c4)n3)CC2C)n1 (stereo not shown) [Example 245] )
6.45

# get_value(readout='pEC50', item= COc1cccc(C(=O)N2CCN(C(=O)c3nnn(-c4cccc(C)c4)n3)CC2C)n1 (stereo not shown) [Example 243] )
6.44

# get_value(readout='pEC50', item= CC(C)COc1cccc(C(=O)N2CCN(C(=O)c3ncn(-c4cccc(Cl)c4)n3)CC2C)c1 (stereo not shown) [Example 216] )
6.21

# get_value(readout='pEC50', item= CC1(C)CN(C(=O)c2cncc(C(F)(F)F)n2)CCN1C(=O)c1ncn(-c2cccc(Cl)c2)n1 [Example 49] )
6.65

# get_value(readout='pEC50', item= CCc1ccc(C(=O)N2CCN(C(=O)c3ncn(-c4cccc(Cl)c4)n3)C(C)(C)C2)o1 [Example 60] )
7.16

# get_value(readout='pEC50', item= CC1(C)CN(C(=O)c2cc3ccccc3c(C3CC3)n2)CCN1C(=O)c1ncn(-c2ccccc2)n1 [Example 203] )
7.21

# get_value(readout='pEC50', item= CC1(C)CN(C(=O)c2cccc(Cl)c2)CCN1C(=O)c1ncn(-c2cc(F)ccc2F)n1 [Example 195] )
6.00

# get_value(readout='pEC50', item= CC1(C)CN(C(=O)c2cnc3[nH]ccc3c2)CCN1C(=O)c1ncn(-c2cccc(Cl)c2)n1 [Example 59] )
5.97

# get_value(readout='pEC50', item= CC1(C)CN(C(=O)c2ccc3ccccc3c2)CCN1C(=O)c1ncn(-c2cccc(Cl)c2)n1 [Example 24] )
7.21

# get_value(readout='pEC50', item= CCc1ccc(C(=O)N2CCN(C(=O)c3ncn(-c4cccc(Cl)c4)n3)C(C)(C)C2)s1 [Example 83] )
7.19

# get_value(readout='pEC50', item= CC1(C)CN(C(=O)c2ccc(F)c(Cl)c2)CCN1C(=O)c1ncn(-c2ccccc2)n1 [Example 149] )
6.45
